target: second (BD2: amino acids E352-E168) bromodomain of BRD4 (Homo sapiens, UniProt O60885); construct: protocol; test: TR-FRET bromodomain binding assay, BRD4 BD2; details: TR-FRET assay protocol (A-G, compound concentration range); Ki calculated from IC50, probe Kd and probe concentration; read-out: TR-FRET Binding Ki: BRD4 (BDII_E352-M457)
pKi: −log10 of the molar value.
value-kind: pKi

Some solved cases for reference:
{"columns": ["cpd-smiles", "pKi"],
 "data": [
  ["COc1cc(=O)n(C)nc1-c1ccccc1OCc1ccncc1", "< 4.95"],
  ["COc1cc(=O)n(C)nc1-c1ccccc1OCC1CCN(C(=O)OC(C)(C)C)CC1", "< 4.65"]
]}

# ---- query compound ----
Quick one: pKi for Cn1nc(-c2ccccc2Oc2ccccc2)c(-c2cncc(C(=O)NC3CCCC3)c2)cc1=O ?
4.99

* * *

biological target: second (BD2: amino acids E352-E168) bromodomain of BRD4 (Homo sapiens, UniProt O60885); construct: protocol; assay: TR-FRET bromodomain binding assay, BRD4 BD2; conditions: TR-FRET assay protocol (A-G, compound concentration range); Ki calculated from IC50, probe Kd and probe concentration; read-out: TR-FRET Binding Ki: BRD4 (BDII_E352-M457)
value-kind: Ki (nM)

{"columns": ["cpd-smiles", "Ki [nM]"],
 "data": [
  ["CCOc1cc(=O)n(C)cc1-c1cc(NS(=O)(=O)c2ccc(Cl)cc2F)ccc1Oc1ccc(F)cc1F", 63.1],
  ["Cn1nc(-c2ccccc2Oc2ccc(C#N)cc2)ccc1=O", 3430],
  ["Cn1nc(-c2ccccc2Oc2ccccc2)c(-c2ccncc2)cc1=O", 562]
]}

(I) Cn1cc(-c2cc(NS(C)(=O)=O)ccc2Oc2ccccc2C#N)ccc1=O
(II) Cc1ccc(-c2cc(=O)n(C)nc2-c2cc(NS(C)(=O)=O)ccc2Oc2ccccc2)cc1
Hey, between I and II which has a smaller measured Ki? When you have decided, please share the label of that item.
II
(II: 23.9 nM, I: 227 nM)

* * *

target: second (BD2: amino acids E352-E168) bromodomain of BRD4 (Homo sapiens); construct: protocol; experiment: TR-FRET bromodomain binding assay, BRD4 BD2; conditions: TR-FRET assay protocol (A-G, compound concentration range); Ki calculated from IC50, probe Kd and probe concentration; read-out: TR-FRET Binding Ki: BRD4 (BDII_E352-M457)
pKi: −log10 of the molar value.
value-kind: pKi

(P) CCN(CC)C(=O)c1ccc(-c2cc(=O)n(C)nc2-c2ccccc2Oc2ccccc2)cc1
(Q) CCS(=O)(=O)Nc1ccc(Oc2ccc(F)cc2F)c(-c2cn(C)c(=O)cc2-c2cnn(CCN3CCOCC3)c2)c1
(R) CCn1cc(-c2cc(=O)n(C)nc2-c2ccccc2Oc2ccccc2)cn1
Arrange these 3 compounds in increasing order of pKi. As an answer, provide the labels arranged in the order called for.
P, R, Q
(P: 6.28, R: 6.93, Q: 8.26)

* * *

target: first (BD1: amino acids K57-E168) bromodomain of BRD4 (Homo sapiens); construct: His-tagged first (BD1: amino acids K57-E168); assay: TR-FRET bromodomain binding assay, BRD4 BD1; settings: TR-FRET assay protocol (A-G, compound concentration range); Ki calculated from IC50, probe Kd and probe concentration; read-out: TR-FRET Binding Ki: BRD4 (BDI_K57-E168)
pKi: −log10 of the molar value.
value-kind: pKi

{"columns": ["cpd-smiles", "pKi"],
 "data": [
  ["CCN(CC)C(=O)c1cc(-c2cc(=O)n(C)nc2-c2ccccc2Oc2ccccc2)ccc1F", 5.40],
  ["Cn1nc(-c2ccccc2Oc2ccccc2)c(-c2cc3ccccc3n2C)cc1=O", "< 4.89"],
  ["Cn1nc(-c2ccccc2Oc2ccccc2)c(-c2cccc(S(=O)(=O)N3CCCC3)c2)cc1=O", "< 4.89"]
]}

Quick one: pKi for Cn1nc(-c2ccccc2Oc2ccccc2)c(-c2cccc(N3CCOCC3)c2)cc1=O ?
< 5.82

Each recorded value in this set is attributed to patent US9561231B2.
